test system: Rattus norvegicus; test: Antiinflammatory activity in rat assessed as inhibition of carrageenan-induced paw volume at 20 mg/kg, po administered 1 hr prior to carrageenan challenge measured after 5 hrs (reference value: 1.70 +/- 0.020 ml); type: functional
# Activity >= 0.7 mL gives Criterion met, anything below gives Criterion not met

INSERT INTO measurements (test_smiles, class_label) VALUES
  ('Cc1ccccc1-n1cc(COC(=O)/C=C/C=C/c2ccc3c(c2)OCO3)nn1', 'Criterion met'),
  ('COc1ccc(-n2cc(COC(=O)/C=C/C=C/c3ccc4c(c3)OCO4)nn2)cc1', 'Criterion met'),
  ('O=C(/C=C/C=C/c1ccc2c(c1)OCO2)OCc1cn(-c2ccc(Cl)c(Cl)c2)nn1', 'Criterion not met'),
  ('O=C(/C=C/C=C/c1ccc2c(c1)OCO2)OCc1cn(-c2ccc(F)cc2)nn1', 'Criterion met'),
  ('Cc1ccc(-n2cc(COC(=O)/C=C/C=C/c3ccc4c(c3)OCO4)nn2)cc1C', 'Criterion not met'),
  ('COc1ccc2c(c1)c(CC(=O)O)c(C)n2C(=O)c1ccc(Cl)cc1', 'Criterion not met'),
  ('O=C(/C=C/C=C/c1ccc2c(c1)OCO2)OCc1cn(-c2ccccc2Cl)nn1', 'Criterion not met');
